- Tested on: prothrombin time
- Measurement Description: Anticoagulant activity by measurement of the prothrombin time (3-day ED50, intraperitoneal, modified one-step method of Quick)
- Assay type: in vivo, Wistar-strain male rats
- Cond: Rattus norvegicus, S100, ip, 72 h; prothrombin time ED50; single intraperitoneal injection, male Wistar rats, blood taken three days after injection; 0% = 12 s, 100% = 212 s; read-out: 3-day ED50
Measurement Label: ED50 (mg/kg)

[[record]]
compound = "O=c1oc2ccccc2c(O)c1C1CC(c2ccc(OCc3ccc(-c4ccc(Br)cc4)cc3)cc2)Cc2ccccc21 (centres unmarked)"
study_system = "prothrombin time"
reported = 0.72

[[record]]
compound = "O=c1oc2ccccc2c(O)c1C1CC(c2ccc(OCc3ccc(-c4ccc(-c5ccccc5)cc4)cc3)cc2)Cc2ccccc21 (centres unmarked)"
study_system = "prothrombin time"
reported = 0.49

[[record]]
compound = "N#Cc1ccc(COc2ccc(-c3ccc(C4Cc5ccccc5C(c5c(O)c6ccccc6oc5=O)C4)cc3)cc2)cc1 (centres unmarked)"
study_system = "prothrombin time"
reported = 1.6

[[record]]
compound = "O=c1oc2ccccc2c(O)c1C1CC(c2ccc(Oc3ccc(-c4ccc(Cl)cc4)cc3)cc2)Cc2ccccc21 (centres unmarked)"
study_system = "prothrombin time"
reported = 0.36

[[record]]
compound = "O=c1oc2ccccc2c(O)c1C1CC(c2ccc(Cc3ccc(-c4ccccc4)cc3)cc2)Cc2ccccc21 (centres unmarked)"
study_system = "prothrombin time"
reported = 0.52


---

# LD50 listing for each entry below
- System: test animal (rat)
- Measurement Description: Acute oral LD50
- Assay type: in vivo
- Cond: polyethylene glycol 200/triethanolamine 9:1 w/w
Measurement Label: LD50 (mg/kg)

[[record]]
molecule = "O=c1oc2ccccc2c(O)c1C1CC(c2ccc(-c3ccc(-c4ccccc4)cc3)cc2)Cc2ccccc21 (centres unmarked)"
measurement_label = "LD50"
reported = 1.0

[[record]]
molecule = "O=c1oc2ccccc2c(O)c1C1CC(c2ccc(-c3ccccc3)cc2)Cc2ccccc21 (centres unmarked) [Difenacoum, reference compound]"
measurement_label = "LD50"
reported = 1.80


---

Parameter LD50: see the listing below.
- Test system: test animal (rat)
- Measurement Description: Acute oral LD50
- Type: in vivo
- Cond: polyethylene glycol 200/triethanolamine 9:1 w/w
Measurement Label: LD50

[[record]]
compound = "O=c1oc2ccccc2c(O)c1C1CC(c2ccc(-c3ccc(OCc4ccc(Br)cc4)cc3)cc2)Cc2ccccc21 (stereo not drawn) [Example 3]"
study_system = "test animal (rat)"
reported = "0.4 to 1.0 mg/kg"

[[record]]
compound = "O=c1oc2ccccc2c(O)c1C1CC(c2ccc(OCc3ccc(-c4ccccc4)cc3)cc2)Cc2ccccc21 (stereo not drawn) [Example 5]"
study_system = "test animal (rat)"
reported = "0.4 to 1.0 mg/kg"

[[record]]
compound = "O=c1oc2ccccc2c(O)c1C1CC(c2ccc(-c3ccc(OCc4ccc(C(F)(F)F)cc4)cc3)cc2)Cc2ccccc21 (stereo not drawn) [Example 1]"
study_system = "test animal (rat)"
reported = "0.32 to 0.4 mg/kg"

